Where these numbers come from: patent US20090149339A1

Target: GST-PSD95 PDZ domain fusion protein (human post-synaptic density protein 95 AA387-724; PDZ domains 1-3 of 3) (human) [GST: P08515]
Sequence (P08515 1-218, tags or fused parts left off): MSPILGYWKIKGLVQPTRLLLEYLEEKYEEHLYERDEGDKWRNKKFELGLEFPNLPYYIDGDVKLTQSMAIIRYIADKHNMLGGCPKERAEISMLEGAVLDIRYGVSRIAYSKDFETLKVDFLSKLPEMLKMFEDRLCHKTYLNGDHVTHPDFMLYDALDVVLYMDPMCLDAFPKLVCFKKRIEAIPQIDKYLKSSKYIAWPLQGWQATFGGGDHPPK
Experiment: G assay, peptide titrated on immobilized GST-PDZ, saturation fit (apparent affinity)
Ends that are not written are not given here.

binder	Kd (µM)
ISGTPTSTMVHGMTSSSSVV (not fully specified) [CLASP-2 C-terminal PL peptide AA2L (C-terminal 20 amino acids), biotinylated]	45
